- targetOrSystem: T1, hHER3 full length (human, UniProt P21860 20-1342)
- T1 construct: On transfected CHO, CHO HER2/HER3, CHO EGFR/HER3 or CHO Flp-In cells; endogenous HER3 of MCF-7 and MDA-MB468 cells in the signalling assays; also called human HER3
- protocolNotes: FACS, 400 nM, competitor 04F10-biotin
recordedEndpoint: % competition (%)

{"binder": "04C07 (VHH, also called HER3MS04C07; HER3MS004C07) VHH: EVQLVESGGGLVQAGGSLRLSCAASGFTFSSYPMSWVRQAPGKGPAWVSTVSPGGITTSYADSVKGRFTISRDNAKNTLYLQMNSLKPEDTAVYYCLRDLNNRGQGTQVTVSS", "reportedValue": 0}
{"binder": "17E08 (VHH) VHH: EVQLVESGGGLVQPGGSLRLSCSASGSIFGLNAMGWYRQTPGKERELVAGITSITRVGSTRYADSAKGRFTISGDYAKNTVYLQMNSLKPEDTGVYYCRMSIVKSGGADYWGQGTQVTVSS", "reportedValue": 32}
{"binder": "18B05 (VHH) VHH: EVQLVESGGGLVQAGGSLRLSCAASGLTFGSAPMGWYRQAPGKERELVAYISGDERIWYGDSVKGRFTISRDTTKNTLYLQMNSLKPEDTAVYYCVSDVKVRHWGQGTQVTVSS", "reportedValue": 31}
{"binder": "21B02 (VHH) VHH: EVQLVESGGGLVQPGGSLRLSCAASGFTFDYYTIGWFRQAPGKEREGVSCISSRDGDSYYADSVKGRFTISRDNAKNTAYLQMNSLKPEDTAVYYCAASASDYGLGLELFHDEYNYWGQGTQVTVSS", "reportedValue": 15}
{"binder": "18G11 (VHH, c-myc, His6-tagged form as expressed; also called HER3MS18G11; HER3MS018G11) VHH: EVQLVESGGGLVQPGGSLRLSCAASGTLFKINAMGWYRQAPGKRRELVALITSSDTTDYAESVEGRFTISRDNTWNAVYLQMNSLKPEDTAVYYCHSDHYSMGVPEKRVIMYGQGTQVTVSS", "reportedValue": 0}
{"binder": "34C07 (VHH, c-myc, His6-tagged form as expressed; also called 34C7; HER3MS34C07) VHH: EVQLVESGGGLVQPGGSLGLSCVASGSIFRINAMAWYRQAPGKQRELVAEITAGGSTNYADSVKGRFTISVDNAWNTLYLQMNSLKVEDTAVYYCNLDHYTTWDRRSAYWGQGTQVTVSS", "reportedValue": 0}
{"binder": "18F05 (VHH, also called 18F5) VHH: EVQLVESGGGLVQPGGSLRLSCVASGFTFSSYWMYWVRQAPGKGVEWVSAISPGGVERYTDSVKGRFTISRDNAKNTLYLQMNSLKSEDTAMYYCARLTSFATPESQGTQVTVSS", "reportedValue": 15}
{"binder": "17B05 (VHH, also called HER3MS17B05; HER3MS017B05) VHH: EVQLVESGGGLVQPGGSLRLSCAASGSIGGLNAMAWYRQAPGKERELVAGIFGVGSTRYADSVKGRFTISRDIAKNTVFLQMNSLNSEDTAVYYCRMSSVTRGSSDYWGQGTQVTVSS", "reportedValue": 68}
{"binder": "21F06 (VHH, c-myc, His6-tagged form as expressed; also called 21F6; HER3MS21F06) VHH: EVQLVESGGGLVQAGGSLRLSCAASGRTYYLNAMGWFRQGPGKDREFVAAIDWSDGNKDYADSVKGRFTISRDNAKNTVYLQMNSLKPEDTAVYYCAADTPPWGPMIYIESYDSWGQGTQVTVSS", "reportedValue": 15}
{"binder": "34A04 (VHH) VHH: EVQLVESGGGLVQAGGSLRLSCAASGFTFDDYTIGWFRQAPGKEREEISCISNNDGSTYYTNSVKGRFTISSDNAKNTVYLQMNSLKPEDTAVYYCAASPHGCWYDLIPLQADFGSWGQGTQVTVSS", "reportedValue": 3}
{"binder": "23F05 (VHH) VHH: EVQLVESGGGLVQAGGSLRLSCAASGFTFDGYAIGWFRQAPGKEREGVSCISGGDGRSYYADSVKGRFTVSSDNAKNTLYLEMNSLKPEDTAVYYCAVIWGPYCSDSYEYLYEYDYWGQGTQVTVSS", "reportedValue": 15}
{"binder": "05A09 (VHH) VHH: EVQLVESGGGLVQAGGSLRLSCAASGFTFDDYAIGWFRQAPGKEREGVSCISSSDGSTVYADSVKGRFTISSDNAKNTVYLQMNSLKPEDTAVYYCAAERRRGYSDLCRFYYGMDYWGKGTQVTVSS", "reportedValue": 0}
{"binder": "18E08 (VHH) VHH: EVQLVESGGGLVQPGGSLRLSCAASGTLFKINAMGWYRQAPGKQRELVALITSSDTTDYAESVEGRFTISRDNTWNAVYLQMNSLKPEDTAVYYCHSDHYSMGVPEKRVIMYGQGTQVTVSS", "reportedValue": 0}
{"binder": "17C08 (VHH, also called 17C8) VHH: EVQLVESGGGLMQAGDSLRLSCAASGRAFSSYALGWFRRAPGKERECVAATDRLGDNTYFPDSVKGRFTISRDNAKNTLYLQMNNLKPEDTAVYYCAAGAVRYGVSTSPMNYNYWGQGTQVTVSS", "reportedValue": 77}

Data origin: patent US20130136748A1
